Test system: P388 leukemia ip, CD2F1 mice, survival T/C
assay: NCI In Vivo Anticancer Drug Screen. Data for tumor model P388 Leukemia (intraperitoneal) in CD2F1 (CDF1) mice
run-conditions: endpoint: median survival time; dose: 12.5 mg/kg/injection; schedule: Q01DX009 (ip); vehicle: Klucel (hydroxypropylcellulose) (HPC); higher = longer survival
Inconclusive results and toxic doses are left out.
readout-type: T/C

Input: Would you kindly share the measured T/C for Nc1ccn(C2OC(CCl)C(O)C2O)c(=O)n1 (configuration not stated) ?
Output: 106 % of control

Input: Using the record for `O=C(CBr)C1(Br)CCN(Cc2ccccc2)CC1` , report its T/C.
Output: 109 % of control

Input: Can you look up the measured T/C of `C=CCn1c(NC2=C(Cl)C(=O)c3ccccc3C2=O)cc(=O)[nH]c1=O` for me?
Output: 104 % of control

Input: For the compound shown here, `CN(C)c1ccc(/C=C/c2ccnc3ccccc23)cc1N` , give the reported T/C.
Output: 93 % of control

Input: For `CCCCCCCCC(=O)c1c(OC)oc(/C=N/O)cc1=O` , what is its reported T/C?
Output: 87 % of control

Input: Reported T/C for CCCCCC1C(=O)CNC1(C(=O)OCC)C(=O)OCC (configuration not stated) : what is it?
Output: 104 % of control

Input: Fill in the blank: the reported T/C of `[Tl][S][Tl]` is ____.
Output: 100 % of control

Input: Reported T/C, compound `CN(C)C(=S)SSC(=S)N(C)C` : ____
Output: 119 % of control

Input: Which T/C reading was recorded for the compound `O=[N+]([O-])c1cc(F)cc([N+](=O)[O-])c1O` ?
Output: 102 % of control

Input: Fill in the blank: the reported T/C of Cc1c(N)nc([C@H](CC(N)=O)NC[C@H](N)C(N)=O)nc1C(=O)N[C@H](C(=O)N[C@H](C)[C@@H](O)[C@H](C)C(=O)N[C@H](C(=O)NCCc1nc(-c2nc(C(=O)NCCC[S+](C)C)cs2)cs1)[C@@H](C)O)C(OC1OC(CO)C(O)C(O)C1OC1OC(CO)C(O)C(OC(N)=O)C1O)c1cnc[nH]1 (some centres not stated) is ____.
Output: 121 % of control

Input: Give its T/C value. Item: `Cc1ccc(NC(=S)SCc2ccc3c(c2)OCO3)cc1Br`
Output: 122 % of control

Input: Please report the recorded T/C for `Cc1ccc2c(c1)sc1nnc(S(C)(=O)=O)n12` .
Output: 118 % of control

* * *

Exercise: state measured T/C for each of the compounds provided.
Test system: P388 leukemia ip, CD2F1 mice, survival T/C
assay: NCI In Vivo Anticancer Drug Screen. Data for tumor model P388 Leukemia (intraperitoneal) in CD2F1 (CDF1) mice
run-conditions: endpoint: median survival time; dose: 50.0 mg/kg/injection; schedule: Q04DX002 (ip); vehicle: saline with Tween-80; higher = longer survival
Toxic doses and inconclusive results are not listed.

Input: // returns reported T/C for input `CN=C(N)NN=C1c2ccccc2-c2ccccc21`
Output: 101 % of control

Input: Dear colleague, I am looking for the recorded T/C of the following compound: `CN(c1ccc(Cc2ccc(N(C)S(C)(=O)=O)cc2)cc1)S(C)(=O)=O`
Output: 110 % of control

Input: For the compound shown here, `O=C(c1ccncc1)c1cc(Cl)c(Cl)cc1Cl` , give the reported T/C.
Output: 102 % of control

Input: Tell me the measured T/C of `CC(C)(/C=N/O)N1CC=CCC1` , please.
Output: 97 % of control

* * *

Task for the reader: assign each of the following compounds its reported T/C.
Test system: P388 leukemia ip, CD2F1 mice, survival T/C
assay: NCI In Vivo Anticancer Drug Screen. Data for tumor model P388 Leukemia (intraperitoneal) in CD2F1 (CDF1) mice
run-conditions: endpoint: median survival time; dose: 60.0 mg/kg/injection; schedule: Q01DX005 (ip); vehicle: Klucel (hydroxypropylcellulose) (HPC); higher = longer survival
Toxic doses and inconclusive results are not listed.

Input: I'd like to know its T/C. The compound in question is `CN1C(=O)N(C)N(Cc2ccccc2)C(=O)N1Cc1ccccc1`
Output: 97 % of control

Input: Fill blank: measured T/C of the compound `C[n+]1c2ccccc2c(Oc2c3ccccc3[n+](C)c3ccccc23)c2ccccc21` is ____.
Output: 91 % of control

Input: Which value of T/C has been reported for `CCOC(=O)Cn1/c(=N/N=C(\C)c2ccc([N+](=O)[O-])o2)sc2cc(Cl)ccc21` in the records?
Output: 102 % of control

Input: Look at this compound and give its reported T/C. `O=C(Nc1cccc(NC(=O)Nc2cc(C(F)(F)F)ccc2Cl)c1)Nc1cc(C(F)(F)F)ccc1Cl`
Output: 89 % of control

Input: Requested read-out: T/C. Entry: COc1ccc2c3c1OC1CC(N4CCCC4)=C(c4c([N+](=O)[O-])cc([N+](=O)[O-])cc4[N+](=O)[O-])C4(O)C(C2)N(C)CCC314 (stereo not given)
Output: 94 % of control

Input: Quick one: T/C of `COc1cc2c(c(=O)c3ccccc3n2C)c2c1c(=O)c1ccccc1n2C` ?
Output: 96 % of control

Input: Bench note: what T/C did `Cc1cnc2cc(-c3ccccc3)[nH]c2n1` show?
Output: 88 % of control

Input: State the recorded T/C for this entry: `CC(C)(Cc1nc2ccccc2[nH]1)Cc1nc2ccccc2[nH]1`
Output: 90 % of control

Input: Look at this compound and give its reported T/C. COC1=CC(C)C2CC3OC(O)CC4C(C)=C(OC)C(=O)C(C2(C)C1=O)C34C (stereo not given)
Output: 94 % of control

Input: Can you share its T/C? I mean this compound: `COC1=NC2=NC(OC)=NC3=C(Br)C=C(Br)C(=N1)N23`
Output: 91 % of control

* * *

Test system: P388 leukemia ip, CD2F1 mice, survival T/C
assay: NCI In Vivo Anticancer Drug Screen. Data for tumor model P388 Leukemia (intraperitoneal) in CD2F1 (CDF1) mice
run-conditions: endpoint: median survival time; dose: 400.0 mg/kg/injection; schedule: Q04DX002 (ip); vehicle: saline; higher = longer survival
Inconclusive results and toxic doses are left out.
For each record, write down the corresponding T/C.

Input: # get_value(readout='T/C', item= `C/C(=N/NC(=O)Cc1ccccc1)C(=NO)/C(C)=N\NC(=O)Cc1ccccc1` )
Output: 116 % of control

Input: I would be grateful if you could share the reported T/C for `N[C@@H](C[C@H]1CCC(=O)[C@@H]2O[C@H]12)C(=O)O` .
Output: 108 % of control

Input: Entry C[C@@H]1C[C@H](C)S(=O)[C@H](C)S1 (some centres undefined) : reported T/C = ?
Output: 100 % of control

Input: Could you share which T/C value was measured for `Cc1ccc(S(=O)(=O)/C=C2\COc3ccccc3C2=O)cc1` ?
Output: 97 % of control

* * *

Provide the reported T/C of each item.
System: P388 leukemia ip, CD2F1 mice, survival T/C
assay: NCI In Vivo Anticancer Drug Screen. Data for tumor model P388 Leukemia (intraperitoneal) in CD2F1 (CDF1) mice
run-conditions: endpoint: median survival time; dose: 6.25 mg/kg/injection; schedule: Q01DX005 (ip); vehicle: saline with Tween-80; higher = longer survival
Toxic doses and inconclusive results are not listed.

Input: Need T/C, item `CCCCCCCCCCCCn1c2nc(=O)[nH]c(=O)c-2nc2ccccc21`
Output: 97 % of control

Input: May I ask what T/C has been recorded for `C/C(=N\Nc1ccccn1)c1ccccn1` ?
Output: 104 % of control

Input: Give the measured T/C of `CN(C)c1ccc(N=NN=c2n(C)c3ccccc3n2C)c(Cl)c1` .
Output: 103 % of control

Input: T/C lookup needed for `C=CCn1c2c(c3ccccc3c1=O)C(=O)c1ccccc1-2` , thanks.
Output: 97 % of control

Input: Item under review: CCCCC(CCCCCC(CCCC)C1NCCc2cc(OC)c(OC)cc21)C1NCCc2cc(OC)c(OC)cc21 (stereo unspecified) . Reported T/C?
Output: 91 % of control

Input: Return reported T/C; argument: `COc1cc(C(=O)Nc2ccc(NC3=NCCN3)cc2)cc(C(=O)Nc2ccc(NC3=NCCN3)cc2)c1`
Output: 102 % of control

* * *

System: P388 leukemia ip, CD2F1 mice, survival T/C
assay: NCI In Vivo Anticancer Drug Screen. Data for tumor model P388 Leukemia (intraperitoneal) in CD2F1 (CDF1) mice
run-conditions: endpoint: median survival time; dose: 50.0 mg/kg/injection; schedule: Q01DX005 (ip); vehicle: saline; higher = longer survival
Toxic doses and inconclusive results are not listed.
readout-type: T/C

Input: Return reported T/C; argument: `COc1ccc(C(=O)C(CN(C)C)CN(C)C)cc1OC`
Output: 112 % of control

Input: Tell me the measured T/C of `O=C1C(=C(Cl)Cl)C(=O)c2ccccc21` , please.
Output: 95 % of control

Input: T/C for CCN(CC)c1ccc(C(NCCC(C)C)C(Cl)(Cl)Cl)cc1 (centres undefined) ?
Output: 97 % of control

Input: // T/C lookup, key: `NCCSCCO`
Output: 98 % of control
